system: human PBMC cytotoxicity, % cell control; experiment: viability of primary blood mononuclear cells – cell-based, primary PBMCs, TC50, cytotoxicity control for HIV-1 antiviral lead project, dose response (AID 504530)
Record form. Attribute: CC50. Fill in for each entry.

- smiles-text: "Cc1c2c(=O)n(-c3nc4ccccc4s3)nc-2cc(O)n1CCc1ccc(O)cc1"
  value-measured: "2.11 µM"
- smiles-text: "Cc1c2c(=O)n(-c3nc4ccccc4s3)nc-2cc(O)n1Cc1cccs1"
  value-measured: "25.7 µM"
- smiles-text: "Cc1c2c(=O)n(-c3nc4ccccc4s3)nc-2cc(O)n1CCc1cccs1"
  value-measured: "71.2 µM"
- smiles-text: "Cc1c2c(=O)n(-c3nc4ccccc4s3)nc-2cc(O)n1CCC(C)C"
  value-measured: "41.1 µM"
- smiles-text: "Cc1c2c(=O)n(-c3nc4ccccc4s3)nc-2cc(O)n1Cc1cccnc1"
  value-measured: "2.15 µM"
- smiles-text: "COc1ccccc1Cn1c(O)cc2nn(-c3nc4ccccc4s3)c(=O)c-2c1C"
  value-measured: "22 µM"
- smiles-text: "Cc1c2c(=O)n(-c3nc4ccccc4s3)nc-2cc(O)n1Cc1ccncc1"
  value-measured: "2.4 µM"
- smiles-text: "Cc1c2c(=O)n(-c3nc4ccccc4s3)nc-2cc(O)n1Cc1ccc(F)cc1"
  value-measured: "18.7 µM"
- smiles-text: "COc1ccc(CCn2c(O)cc3nn(-c4nc5ccccc5s4)c(=O)c-3c2C)cc1"
  value-measured: "60 µM"
- smiles-text: "Cc1c2c(=O)n(-c3nc4ccccc4s3)nc-2cc(O)n1Cc1ccccc1Cl"
  value-measured: "38.9 µM"

List reported CC50 for each of these compounds:
1. Cc1c2c(=O)n(-c3nc4ccccc4s3)nc-2cc(O)n1C1CC1
2. COc1ccc(Cn2c(O)cc3nn(-c4nc5ccccc5s4)c(=O)c-3c2C)cc1

2.6 µM
19.2 µM
